# TARGET_SYSTEM: human tissue factor (TF), membrane-bound on cells (human, UniProt P13726 33-295)
# MEASUREMENT_DESCRIPTION: cell-based or functional assay
Recorded EC50 of ADCC, Bx-PC3 cells, one value per entry.
Numeric only. Scale: nM

# annotated cases, reported EC50 of ADCC, Bx-PC3 cells shown
BINDER	UNIT_SPEC	EC50 of ADCC, Bx-PC3 cells
anti-TF HuMab 044 (antibody, V domains shown, Human monoclonal antibody from HuMab mice) VH: QVQLVESGGGVVQPGRSLRLSCAASGFTFSDYAMHWVRQAPGKGLEWVAVIPYDGDNKYYADSVKGRFTISRDNSKNTLYLQMNSLRAEDTAVYYCAREDWGLEVDYWGQGALVTVSS VL: AIQLTQSPSSLSASVGDRVTITCRASQGINSALAWYQQKPGKAPKLLIYDASSLESGVPSRFSGSGSGTDFTLTISSLQPEDFATYYCQQFNSYPLTFGGGTKVEIK	nM	0.12
anti-TF HuMab 101 (antibody, V domains shown, Human monoclonal antibody from HuMab mice) VH: EVQLLESGGGLVQPGGSLRLSCAASGFTFSNYAMSWVRQAPAKGLDWVSGISGSGVTTYYADSVKGRFTISRDNSKDTLYLQMNSLRAEDTAVYFCAKTPWGYYFDYWGQGILVAVSS VL: DIQMTQSPSSLSASVGDRVTITCRASQGISSWLAWYQQKPEKAPKSLIYAASSLQSGVPSRFSGSGSGTDFTLTISSLQPEDFATYYCQQYNSYPLYTFGQGTKLEIK	nM	0.09

The record that follows has no EC50 of ADCC, Bx-PC3 cells shown yet.
Give the value of EC50 of ADCC, Bx-PC3 cells reported for the following: anti-TF HuMab 109 (antibody, V domains shown, Human monoclonal antibody from HuMab mice) VH: QVQLVESGGGVVQPGRSLRLSCPASGFTFSIYAMHWVRQAPGKGLEWVAVVSNDGYNKYYADSVKGRFTISRDNSKDTLYLQMNSLRAEDTAVYYCARDGQLGRGYFDYWGQGTLVTVSS VL: EIVLTQSPATLSLSPGERAILSCRASQSVSSYLAWYQQKPGQAPRLLIYDASNRATGIPARFSGSGSGTDFTLTISSLEPEDFAVYYCQQRSNWPLTFGGGTKVEIK
0.06

Values from patent US20110300156A1
